# Experimental System: T1, human CD22 (d1 to d7 domain according to NP_001762.2) (human, UniProt P20273 20-687)
# T1 construct: domain: d1 to d7 domain; also called human CD22-gly; Siglec-2
# Assay Info: SPR; mAb supernatant captured on protein A chip, human CD22 injected
Record form. Attribute: kon. Fill in for each entry.
A number alone suffices; assume M⁻¹ s⁻¹.

Exam item: Please give the documented kon of TNT83 (antibody, human IgG1, kappa, V domains shown) VH: EVQLVESGGGLVQPGGSLRLSCAASGFTFSSYEMNWVRQAPGKGLEWVSYISSSGSTIYYADSVKGRFTISRDNAKNSLYLQMNSLRAEDTAVYYCARHSGYGTHWGVLFAYWGRGTLVTVSS VL: EIVLTQSPATLSLSPGERATLSCRASQDIHGYLNWYQQKPGQAPRLLIYYTSILHSGIPARFSGSGPGTDFTLTISSLEPEDFAVYYCQQGNTLPWTFGGGTKLEIKR
Marked response: 269000

Exam item: Supply kon value. Item: TNT69 (antibody, human IgG1, kappa, V domains shown) VH: EVQLVESGGGLVQPGGSLRLSCAASGFAFSIYDMSWVRQAPGKGLEWVAYISSGGGTTYYPDTVKGRFTISRDNSKNTLYLQMNSLRAEDTAVYYCARHSGYGTHWGVLFAYWGRGTLVTVSS VL: DIQMTQSPSSLSASVGDRVTITCRASQDIHGYLNWYQQKPGKAPKLLIYYTSILHSGVPSRFSGSGSGTDFTLTISSLQPEDFATYFCQQGNTLPWTFGQGTKLEIKR
Marked response: 201000

Exam item: Identify the reported kon for the following entry. TNT82 (antibody, human IgG1, kappa, V domains shown) VH: QVQLLESGGGVVQPGGSLRLSCAASGFAFSIYDMNWVRQAPGKGLEWVSAISSGGGTTYYADSVKGRFTISRDNAKNSLYLQMNSLRAEDTAVYYCARHSGYGTHWGVLFAYWGRGTLVTVSS VL: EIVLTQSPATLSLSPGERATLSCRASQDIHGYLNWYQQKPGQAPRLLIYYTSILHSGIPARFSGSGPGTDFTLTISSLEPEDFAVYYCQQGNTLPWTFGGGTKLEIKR
Marked response: 167000

Exam item: Please supply the value of reported kon for the item TNT75 (antibody, human IgG1, kappa, V domains shown) VH: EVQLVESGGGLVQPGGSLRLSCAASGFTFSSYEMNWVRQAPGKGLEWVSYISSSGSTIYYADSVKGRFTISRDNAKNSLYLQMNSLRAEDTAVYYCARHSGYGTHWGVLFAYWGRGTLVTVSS VL: DIQMTQSPSSVSASVGDRVTITCRASQDIHGYLAWYQQKPGKAPKLLIYYTSSLQSGVPSRFSGSGSGTDFTLTISSLQPEDFATYYCQQGNTLPWTFGQGTKLEIKR
Marked response: 280000

Exam item: Give the reported value of kon for this record: TNT78 (antibody, human IgG1, kappa, V domains shown) VH: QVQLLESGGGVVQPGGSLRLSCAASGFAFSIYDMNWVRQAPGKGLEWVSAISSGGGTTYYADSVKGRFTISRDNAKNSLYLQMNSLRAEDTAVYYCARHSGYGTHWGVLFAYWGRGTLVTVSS VL: DIQMTQSPSSLSASVGDRVTITCRASQSISSYLNWYQQKPGKAPKLLIYAASSLQSGVPSRFSGSGSGTDFTLTISSLQPEDFATYYCQQGNTLPWTFGQGTKLEIKR
Marked response: 195000

Exam item: Consider the binder TNT73 (antibody, human IgG1, kappa, V domains shown) VH: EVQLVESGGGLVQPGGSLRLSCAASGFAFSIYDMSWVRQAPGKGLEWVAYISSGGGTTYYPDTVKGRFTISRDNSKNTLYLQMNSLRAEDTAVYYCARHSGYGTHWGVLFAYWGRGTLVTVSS VL: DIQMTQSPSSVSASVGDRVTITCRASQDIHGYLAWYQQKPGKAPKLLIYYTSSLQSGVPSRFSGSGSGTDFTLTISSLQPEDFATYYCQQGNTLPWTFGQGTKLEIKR . State its measured kon.
Marked response: 158000

Exam item: Item TNT88 (antibody, human IgG1, kappa, V domains shown) VH: QVQLQESGPGLVKPSDTLSLTCTVSGFAFSIYDMSWIRQPPGKGLEWIAYISSGGGTTYYNPSLKSRVTISVDTSKNQFSLKLSSVTAADTAVYYCARHSGYGTHWGVLFAYWGRGTLVTVSS VL: DIVMTQTPLSLSVTPGQPASISCRASQDIHGYLNWYQQKPGQSPQLLIYYTSILHSGVPDRFSGSGSGTDFTLKISRVEAEDVGVYFCQQGNTLPWTFGGGTKLEIKR : provide kon
Marked response: 215000

Exam item: Supply reported kon belonging to this binder: TNT85 (antibody, human IgG1, kappa, V domains shown) VH: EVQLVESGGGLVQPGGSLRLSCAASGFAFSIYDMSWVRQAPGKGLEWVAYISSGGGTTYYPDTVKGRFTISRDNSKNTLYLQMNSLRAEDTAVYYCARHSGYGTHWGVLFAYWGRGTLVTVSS VL: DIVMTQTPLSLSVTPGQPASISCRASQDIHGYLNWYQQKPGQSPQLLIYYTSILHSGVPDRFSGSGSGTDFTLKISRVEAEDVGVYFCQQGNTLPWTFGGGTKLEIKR
Marked response: 135000

Exam item: Let me know recorded kon for TNT86 (antibody, human IgG1, kappa, V domains shown) VH: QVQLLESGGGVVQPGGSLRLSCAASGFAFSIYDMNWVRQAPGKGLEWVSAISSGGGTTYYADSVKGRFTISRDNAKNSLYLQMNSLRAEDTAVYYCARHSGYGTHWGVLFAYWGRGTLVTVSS VL: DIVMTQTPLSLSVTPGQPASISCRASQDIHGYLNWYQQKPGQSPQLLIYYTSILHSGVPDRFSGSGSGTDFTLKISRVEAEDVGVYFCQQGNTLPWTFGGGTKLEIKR , thanks.
Marked response: 130000

Exam item: Give recorded kon. TNT77 (antibody, human IgG1, kappa, V domains shown) VH: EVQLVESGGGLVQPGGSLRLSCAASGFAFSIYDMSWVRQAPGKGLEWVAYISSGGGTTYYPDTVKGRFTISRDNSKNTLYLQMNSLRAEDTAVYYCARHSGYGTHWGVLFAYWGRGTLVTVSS VL: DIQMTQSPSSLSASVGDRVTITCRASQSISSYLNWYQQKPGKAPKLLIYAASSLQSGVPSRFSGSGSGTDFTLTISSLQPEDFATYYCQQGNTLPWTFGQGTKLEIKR
Marked response: 203000

src = patent US20220380768A1
